- TESTED ON: Programmed cell death protein 1/Programmed cell death 1 ligand 1 (Homo sapiens)
- Sequence (Q15116 whole entry): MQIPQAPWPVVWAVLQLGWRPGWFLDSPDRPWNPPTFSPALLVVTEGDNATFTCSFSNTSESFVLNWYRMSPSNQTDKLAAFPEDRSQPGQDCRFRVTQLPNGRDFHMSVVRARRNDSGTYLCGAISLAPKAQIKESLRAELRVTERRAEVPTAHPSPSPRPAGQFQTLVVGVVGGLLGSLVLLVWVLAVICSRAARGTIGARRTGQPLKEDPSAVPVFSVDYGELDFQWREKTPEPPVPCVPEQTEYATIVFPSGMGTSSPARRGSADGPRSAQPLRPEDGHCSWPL
- Sequence (Q9NZQ7 whole entry): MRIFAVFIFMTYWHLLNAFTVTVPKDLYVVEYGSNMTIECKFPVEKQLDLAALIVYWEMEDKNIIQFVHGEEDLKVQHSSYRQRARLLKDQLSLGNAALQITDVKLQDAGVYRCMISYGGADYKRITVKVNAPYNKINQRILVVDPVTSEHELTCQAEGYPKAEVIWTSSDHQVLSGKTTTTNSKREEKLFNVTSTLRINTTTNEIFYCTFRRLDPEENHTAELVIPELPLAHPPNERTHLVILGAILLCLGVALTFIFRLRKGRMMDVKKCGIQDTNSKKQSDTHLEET
- ASSAY COMMENT: Inhibition of interaction of PD-1/PD-L1 (unknown origin) by HTRF analysis
Some compounds, each annotated with its measured log10 of IC50.
ENDPOINT NAME: log10 of IC50 (log10 of the value in nM)

1) Cl.Clc1c(-c2ccc3c(c2)CNC3)cccc1-c1ccc2c(c1)OCCO2 0.77
2) Cc1c(-c2ccccc2)cccc1-c1ccc2c(c1)CN(C(=O)[C@H](C)N)C2 1.48
3) O=C([C@@H]1CCCN1)N1Cc2ccc(-c3cccc(-c4ccccc4)c3Cl)cc2C1 1.25
4) C[C@H](N)C(=O)N1Cc2ccc(-c3cccc(-c4ccc5c(c4)OCCO5)c3Cl)cc2C1.Cl 0.68
5) Cc1c(-c2ccccc2)cccc1-c1ccc2c(c1)CN(C(=O)[C@@H]1CCCN1)C2 0.85
6) N#Cc1c(-c2ccccc2)cccc1-c1ccc2c(c1)CN(C(=O)[C@@H]1CCCN1)C2 1.93
7) N#Cc1c(-c2ccc3c(c2)CNC3)cccc1-c1ccc2c(c1)OCCO2 1.27
8) COc1c(-c2ccccc2)cccc1-c1ccc2c(c1)CNC2 2.06
9) NCC(=O)N1Cc2ccc(-c3cccc(-c4ccccc4)c3Cl)cc2C1 1.96

---

- TESTED ON: Programmed cell death protein 1/Programmed cell death 1 ligand 1 (Homo sapiens)
- ASSAY COMMENT: Inhibition of interaction of PD-1/PD-L1 (unknown origin) by HTRF analysis
ENDPOINT NAME: IC50

1) Clc1c(-c2ccc3c(c2)CNC3)cccc1-c1ccc2nonc2c1 0.88 µM
2) C[C@H](N)C(=O)N1Cc2ccc(-c3cccc(-c4ccccc4)c3Cl)cc2C1 0.0129 µM
3) Cc1c(-c2ccc3c(c2)CNC3)cccc1-c1ccc2c(c1)OCCO2 0.0358 µM
4) Cc1c(-c2ccccc2)cccc1-c1ccc2c(c1)CN(C(=O)[C@@H](N)CO)C2 0.0948 µM
5) C[C@H](N)C(=O)N1Cc2ccc(-c3cccc(-c4ccccc4)c3C#N)cc2C1 0.05 µM
6) Cc1c(-c2ccccc2)cccc1-c1ccc2c(c1)CN(C(=O)[C@@H](N)CC(=O)O)C2 0.142 µM
7) Cc1c(-c2ccccc2)cccc1-c1ccc2c(c1)CN(C(=O)[C@@H]1CCCCN1)C2 0.0193 µM
8) Cc1c(-c2ccccc2)cccc1-c1ccc2c(c1)CN(C(=O)[C@@H]1C[C@H](O)CN1)C2 0.0845 µM
9) O=C([C@@H]1CCCCN1)N1Cc2ccc(-c3cccc(-c4ccc5c(c4)OCCO5)c3Cl)cc2C1 0.0262 µM

---

- ASSAY COMMENT: Tmax in Sprague-Dawley rat at 20 mg/kg, po measured for 24 hrs by LC-MS/MS analysis
- Assay type: ADME, organism-based
- CONDITION PARAMETERS: in vivo
ENDPOINT NAME: Tmax (h)

1. C[C@H](N)C(=O)N1Cc2ccc(-c3cccc(-c4ccc5c(c4)OCCO5)c3Cl)cc2C1.Cl 2.5

---

- ASSAY COMMENT: Clearance in Sprague-Dawley rat at 20 mg/kg, po measured for 24 hrs by LC-MS/MS analysis
- Type: ADME, organism-based
- CONDITION PARAMETERS: in vivo
ENDPOINT NAME: CL/F (mL/min/kg)

1) C[C@H](N)C(=O)N1Cc2ccc(-c3cccc(-c4ccc5c(c4)OCCO5)c3Cl)cc2C1.Cl 401

Origin of the recorded values: ChEMBL document CHEMBL6109137
